From: patent US20220177594A1

Below: a set of entries, each annotated with reported pKd.
Molecular target: Feline_OSMR_hlgG1_Fc (feline)
Sequence (chain, as listed by the source limits assumed, form in doubt): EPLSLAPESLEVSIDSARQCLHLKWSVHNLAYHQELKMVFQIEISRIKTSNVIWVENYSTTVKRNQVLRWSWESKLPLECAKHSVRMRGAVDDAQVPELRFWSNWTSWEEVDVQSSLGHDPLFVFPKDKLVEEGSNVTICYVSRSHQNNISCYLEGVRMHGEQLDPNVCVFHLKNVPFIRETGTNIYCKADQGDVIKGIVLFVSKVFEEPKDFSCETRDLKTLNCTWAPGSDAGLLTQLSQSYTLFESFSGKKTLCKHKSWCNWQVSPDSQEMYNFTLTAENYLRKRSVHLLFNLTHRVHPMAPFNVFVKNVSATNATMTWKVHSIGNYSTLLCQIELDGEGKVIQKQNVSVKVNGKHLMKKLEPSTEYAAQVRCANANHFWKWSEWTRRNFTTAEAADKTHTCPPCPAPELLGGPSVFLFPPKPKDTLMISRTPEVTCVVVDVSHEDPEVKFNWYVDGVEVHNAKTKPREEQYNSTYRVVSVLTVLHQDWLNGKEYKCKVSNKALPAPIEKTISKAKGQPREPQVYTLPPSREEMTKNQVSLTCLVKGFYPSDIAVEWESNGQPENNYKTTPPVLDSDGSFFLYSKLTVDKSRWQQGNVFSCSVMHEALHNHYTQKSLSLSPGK
Experiment: SPR Biacore
Keep in mind that pKd stands for -log10 of concentration in molar terms.

For orientation, consider the following solved cases.
Input line: Quick check: pKd of Mu_09E09_VL (SEQ ID NO: 37)_L94A (antibody, V domains shown) VH: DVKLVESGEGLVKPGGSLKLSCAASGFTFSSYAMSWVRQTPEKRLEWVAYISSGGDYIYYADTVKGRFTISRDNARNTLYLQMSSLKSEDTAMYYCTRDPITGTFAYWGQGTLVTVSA VL: DLQMTQTTSSLSASLGDRVTISCRASQDINNYLNWYQQKPDGTVKLLIYYTSTLHSGVPSRFSGSGSGTDYSLTISNLEQEDIATYFCQQGNTAPWTFGGGTKLEIKR ?
Output line: 9.21

Input line: Quick check: pKd of Mu_19F07_VL (SEQ ID NO: 49)_Q90A (antibody, V domains shown) VH: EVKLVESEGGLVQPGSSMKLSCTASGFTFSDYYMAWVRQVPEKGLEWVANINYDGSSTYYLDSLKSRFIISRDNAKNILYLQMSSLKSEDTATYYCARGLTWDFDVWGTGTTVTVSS VL: DIVMTQSHKFMSPSVGDRVSITCKASQDVDTAVAWYQQKPGQSPKLLIYLASTRHTGVPDRFTGSGSGTDFTLTISNVQSEDLADYFCQAYSRFPLTFGAGTKLELKR ?
Output line: 12.32

Input line: Quick check: pKd of Mu_02D09_VH (SEQ ID NO: 31)_D62A (antibody, V domains shown) VH: EVQLVESGGGLVKPGGSLTLSCAASGFTFSDYGMHWLRQAPEKGLEWVAYISSGSRAVFFAATVKGRFTISRDNAKNTLFLQMTSLRSDDTAMYYCARDRYDGRGFAYWGQGTLVTVSA VL: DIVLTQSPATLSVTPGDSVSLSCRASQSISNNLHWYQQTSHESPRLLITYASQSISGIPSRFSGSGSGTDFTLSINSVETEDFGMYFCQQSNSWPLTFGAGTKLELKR ?
Output line: 11.68

Input line: Quick check: pKd of Mu_10F07_VL (SEQ ID NO: 41)_Y50A (antibody, V domains shown) VH: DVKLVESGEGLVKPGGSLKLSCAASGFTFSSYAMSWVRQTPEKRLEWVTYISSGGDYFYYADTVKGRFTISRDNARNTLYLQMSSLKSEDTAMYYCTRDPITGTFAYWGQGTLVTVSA VL: DIQMTQTTSSLSASLGDRVTISCRASQDITNYLNWYQQKPDGTVKLLIYATSTLHSGVPSRFSGSGSGTDFSLTISNLEQEDIATYFCQQGHMLPWTFGGGTKLEIKR ?
Output line: 11.15

// switching to the query binder
Input line: Quick check: pKd of Mu_19F07_VL (SEQ ID NO: 49)_T53A (antibody, V domains shown) VH: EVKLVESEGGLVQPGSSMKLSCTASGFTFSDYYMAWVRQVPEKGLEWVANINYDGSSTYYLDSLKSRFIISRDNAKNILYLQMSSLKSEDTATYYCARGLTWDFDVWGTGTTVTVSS VL: DIVMTQSHKFMSPSVGDRVSITCKASQDVDTAVAWYQQKPGQSPKLLIYLASARHTGVPDRFTGSGSGTDFTLTISNVQSEDLADYFCQQYSRFPLTFGAGTKLELKR ?
Output line: 11.27
